Biological target: recombinant human VAP-1 (Homo sapiens)
Construct: purchased R&D systems
Sequence (Q16853 whole entry): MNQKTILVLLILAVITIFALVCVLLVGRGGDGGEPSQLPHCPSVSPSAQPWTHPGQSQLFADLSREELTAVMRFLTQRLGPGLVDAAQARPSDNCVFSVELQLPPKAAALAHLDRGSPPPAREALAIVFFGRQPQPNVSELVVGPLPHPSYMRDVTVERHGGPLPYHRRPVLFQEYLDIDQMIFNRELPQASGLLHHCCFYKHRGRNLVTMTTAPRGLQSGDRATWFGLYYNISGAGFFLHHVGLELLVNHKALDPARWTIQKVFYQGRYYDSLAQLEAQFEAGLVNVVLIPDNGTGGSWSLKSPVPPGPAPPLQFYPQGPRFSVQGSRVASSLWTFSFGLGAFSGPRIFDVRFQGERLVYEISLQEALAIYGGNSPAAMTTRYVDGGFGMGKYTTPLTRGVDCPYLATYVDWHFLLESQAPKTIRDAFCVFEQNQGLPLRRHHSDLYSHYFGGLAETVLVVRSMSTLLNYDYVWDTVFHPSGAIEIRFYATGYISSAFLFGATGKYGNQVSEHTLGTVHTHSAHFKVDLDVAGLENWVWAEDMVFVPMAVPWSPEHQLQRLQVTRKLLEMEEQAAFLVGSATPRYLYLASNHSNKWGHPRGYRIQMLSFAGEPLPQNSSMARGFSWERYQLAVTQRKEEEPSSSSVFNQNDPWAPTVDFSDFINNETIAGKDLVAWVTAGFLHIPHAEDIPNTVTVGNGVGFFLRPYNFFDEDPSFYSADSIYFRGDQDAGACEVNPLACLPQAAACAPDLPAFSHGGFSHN
Experiment: Activity on recombinant human VAP-1, HRP-coupled Amplex Red hydrogen peroxide assay
Assay type: biochemical
Conditions: substrate 1 mM benzylamine; compound incubated with enzyme at 37° C. for 30 minutes; pH 7.4; read-out: Inhibitory Activity (IC50, nM) human VAP-1
Counter-ions that a name gives are not always drawn.
Rule: IC50 below 1 nM gives Fulfilled, anything at or above gives Not fulfilled.

See these solved cases before continuing.
>>> df
                                   compound                   target_or_test_system  class_assignment
0  NC/C(=C\F)Cn1ncn(Cc2ccc(C#Cc3ccc4c(c3)NCCO4)s2)c1=O  recombinant human VAP-1 (Homo sapiens)     Not fulfilled
1  COc1cc(-c2ccc(Cn3cnn(C/C(=C/F)CN)c3=O)s2)cnc1OC  recombinant human VAP-1 (Homo sapiens)         Fulfilled
2  Cc1c(-c2ccc(Cn3cnn(C/C(=C/F)CN)c3=O)s2)ccc2c1NCCO2  recombinant human VAP-1 (Homo sapiens)         Fulfilled

For NC/C(=C\F)Cn1ncn(Cc2ccc(C#Cc3cccc(N)c3)s2)c1=O [Example 125, hydrochloride] , is the recorded IC50 below the cut-off of 1 nM?
Not fulfilled

For NC/C(=C\F)Cn1ncn(Cc2ccc(-c3cnc4scnc4c3)s2)c1=O [Example 64, hydrochloride] , is the recorded IC50 below the cut-off of 1 nM?
Fulfilled

For NC/C(=C\F)Cn1ncn(Cc2ccc(-c3cc4c(c(C(F)(F)F)c3)NC(=O)CC4)s2)c1=O , is the recorded IC50 below the cut-off of 1 nM?
Fulfilled

For COc1ccc(-c2ccc(Cn3cnn(C/C(=C/F)CN)c3=O)s2)cc1OC [Example 16, hydrochloride] , is the recorded IC50 below the cut-off of 1 nM?
Not fulfilled

For NC/C(=C\F)Cn1ncn(CCc2ccc(-c3ccc(N4CCNCC4)cc3)s2)c1=O , is the recorded IC50 below the cut-off of 1 nM?
Not fulfilled

====

Target: recombinant human VAP-1 (Homo sapiens)
Construct: purchased R&D systems
Test: Activity on recombinant human VAP-1, HRP-coupled Amplex Red hydrogen peroxide assay
Assay type: biochemical
Settings: substrate 1 mM benzylamine; compound incubated with enzyme at 37° C. for 30 minutes; pH 7.4; read-out: Inhibitory Activity (IC50, nM) human VAP-1
Structures can show the parent of a compound that is named as a salt.
Rule: IC50 below 0.8 nM gives rule met, anything at or above gives rule not met.

For NC/C(=C\F)Cn1ncn(Cc2ccc(-c3ccc(C(F)(F)F)nc3)s2)c1=O [Example 49, hydrochloride] , is the recorded IC50 below the cut-off of 0.8 nM?
rule met

For NC/C(=C\F)Cn1ncn(Cc2ccc(-c3ccc4c(c3)COC4)s2)c1=O [Example 193] , is the recorded IC50 below the cut-off of 0.8 nM?
rule not met

For NC/C(=C\F)Cn1ncn(Cc2ccc(-c3ccc(N4CCCC4)cc3)s2)c1=O [Example 20, hydrochloride] , is the recorded IC50 below the cut-off of 0.8 nM?
rule not met

For NC/C(=C\F)Cn1ncn(Cc2ccc(-c3c[nH]c4ncccc34)s2)c1=O [Example 115, hydrochloride] , is the recorded IC50 below the cut-off of 0.8 nM?
rule met

For COC(=O)c1ccc(-c2ccc(Cn3cnn(C/C(=C/F)CN)c3=O)s2)cc1F [Example 12, hydrochloride] , is the recorded IC50 below the cut-off of 0.8 nM?
rule not met
